- Assay system: kinases (Homo sapiens, UniProt P07949, M918T)
- Construct: purchased Eurofins/DiscoveRx; host or cells: E. coli BL21-derived host (T7 phage display) for most kinases; HEK-293 for the rest
- Sequence (P07949 29-1114 M918T): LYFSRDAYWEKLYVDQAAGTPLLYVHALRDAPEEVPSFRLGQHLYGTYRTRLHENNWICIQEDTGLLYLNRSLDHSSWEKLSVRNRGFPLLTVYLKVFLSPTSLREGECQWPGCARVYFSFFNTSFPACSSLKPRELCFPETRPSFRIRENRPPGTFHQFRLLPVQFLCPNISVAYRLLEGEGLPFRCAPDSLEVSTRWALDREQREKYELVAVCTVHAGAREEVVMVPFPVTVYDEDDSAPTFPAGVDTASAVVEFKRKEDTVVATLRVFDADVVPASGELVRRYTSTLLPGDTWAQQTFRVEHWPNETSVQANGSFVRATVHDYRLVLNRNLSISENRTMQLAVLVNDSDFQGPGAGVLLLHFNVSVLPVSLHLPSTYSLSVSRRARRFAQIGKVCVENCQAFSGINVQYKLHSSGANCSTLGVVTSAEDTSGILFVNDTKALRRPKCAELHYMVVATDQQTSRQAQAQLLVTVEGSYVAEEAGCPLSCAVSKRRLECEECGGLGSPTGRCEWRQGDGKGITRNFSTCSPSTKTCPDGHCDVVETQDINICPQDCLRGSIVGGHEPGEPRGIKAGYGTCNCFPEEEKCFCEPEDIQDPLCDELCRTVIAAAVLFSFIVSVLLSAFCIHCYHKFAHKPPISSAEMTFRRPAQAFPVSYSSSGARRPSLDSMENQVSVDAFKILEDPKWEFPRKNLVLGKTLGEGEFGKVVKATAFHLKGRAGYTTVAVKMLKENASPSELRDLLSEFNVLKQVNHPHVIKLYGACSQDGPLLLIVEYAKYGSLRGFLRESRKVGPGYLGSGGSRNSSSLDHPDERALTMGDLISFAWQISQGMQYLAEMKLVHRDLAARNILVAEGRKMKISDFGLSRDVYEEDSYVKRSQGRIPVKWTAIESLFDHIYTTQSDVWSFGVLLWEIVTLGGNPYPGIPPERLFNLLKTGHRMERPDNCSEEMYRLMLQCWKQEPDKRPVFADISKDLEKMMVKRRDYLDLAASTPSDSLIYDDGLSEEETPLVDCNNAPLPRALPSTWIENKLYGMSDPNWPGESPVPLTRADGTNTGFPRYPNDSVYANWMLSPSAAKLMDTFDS
- Assay method text: KINOMEscan kinase binding assay (Eurofins/DiscoveRx), % Ctrl
- Study conditions: target RET(M918T); 1 μM
Observed property: % Ctrl, RET(M918T) (% Ctrl)

# count of solved cases: 3
query: Check the records and state % Ctrl, RET(M918T) for Cc1cc2c([nH]1)/C=C1\C(=O)Nc3ccc(cc31)-c1c(noc1C)CNCCN(C)C2=O [Ex. 139]
result: 41

query: Name the recorded % Ctrl, RET(M918T) of the item CN1CCSCCOc2cc3c(cc2Cl)NC(=O)/C3=C\c2[nH]ccc2C1=O [Ex. 153] in your answer.
result: 1

query: // fetch % Ctrl, RET(M918T) given entry Cc1nn(C)c2c1-c1ccc3c(c1)/C(=C/c1[nH]ccc1C(=O)N(C)CCCO2)C(=O)N3 [Ex. 150]
result: 90

P. Cc1cc2c([nH]1)/C=C1\C(=O)Nc3cnc(cc31)-c1cn[nH]c1CNCCN(C)C2=O [Ex. 55]
Q. Cc1cc2c([nH]1)/C=C1\C(=O)Nc3ccc(cc31)-c1c(C)nn(C)c1COCCN(C)C2=O [Ex. 146]
R. Cc1cc2c([nH]1)/C=C1\C(=O)Nc3cc(Cl)c(cc31)OCCO[C@@H](C(=O)N1CCN(C)CC1)CN(C)C2=O [Ex. 138]
query: Number of compounds to sort: 3. Sort criterion: % Ctrl, RET(M918T), ascending. Present the labels in the sequence the task asks for.
result: P, Q, R

---

- Assay system: kinases (Homo sapiens, UniProt P36888)
- Construct: purchased Eurofins/DiscoveRx; host or cells: E. coli BL21-derived host (T7 phage display) for most kinases; HEK-293 for the rest
- Sequence (P36888 27-993): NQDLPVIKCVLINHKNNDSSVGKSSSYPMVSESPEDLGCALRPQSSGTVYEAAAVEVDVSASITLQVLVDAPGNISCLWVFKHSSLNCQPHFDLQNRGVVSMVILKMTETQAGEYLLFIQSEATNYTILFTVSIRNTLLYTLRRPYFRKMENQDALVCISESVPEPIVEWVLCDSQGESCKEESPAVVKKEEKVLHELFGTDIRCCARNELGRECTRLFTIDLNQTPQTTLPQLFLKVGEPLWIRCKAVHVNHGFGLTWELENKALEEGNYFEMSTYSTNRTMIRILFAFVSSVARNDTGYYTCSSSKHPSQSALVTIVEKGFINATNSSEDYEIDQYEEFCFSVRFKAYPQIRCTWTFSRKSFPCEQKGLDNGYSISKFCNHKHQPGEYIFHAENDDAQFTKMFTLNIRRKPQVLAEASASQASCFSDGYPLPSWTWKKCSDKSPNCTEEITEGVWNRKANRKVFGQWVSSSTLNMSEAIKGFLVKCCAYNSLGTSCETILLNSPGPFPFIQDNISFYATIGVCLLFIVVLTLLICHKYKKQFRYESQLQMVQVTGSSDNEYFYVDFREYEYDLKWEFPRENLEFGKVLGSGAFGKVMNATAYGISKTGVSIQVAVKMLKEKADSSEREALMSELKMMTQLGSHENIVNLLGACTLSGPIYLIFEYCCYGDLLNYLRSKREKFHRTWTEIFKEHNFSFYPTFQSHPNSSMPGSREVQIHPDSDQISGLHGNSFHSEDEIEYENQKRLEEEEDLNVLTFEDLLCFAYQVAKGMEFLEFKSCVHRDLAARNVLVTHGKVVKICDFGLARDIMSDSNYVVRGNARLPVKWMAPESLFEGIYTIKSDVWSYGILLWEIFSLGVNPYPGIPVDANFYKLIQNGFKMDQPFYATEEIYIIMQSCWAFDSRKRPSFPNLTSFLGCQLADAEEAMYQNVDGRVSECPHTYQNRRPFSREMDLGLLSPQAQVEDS
- Assay method text: KINOMEscan kinase binding assay (Eurofins/DiscoveRx), % Ctrl
- Study conditions: 1 μM; FLT3-autoinhibited
Observed property: % Ctrl, FLT3-autoinhibited (% Ctrl)

# example entries with known answers
query: Please report the measured % Ctrl, FLT3-autoinhibited for Cc1cc2c([nH]1)/C=C1\C(=O)Nc3cc(Cl)c(cc31)OCCO[C@@H](C(=O)NC1CCNCC1)CN(C)C2=O [Ex. 134]
result: 95

query: Indicate the recorded % Ctrl, FLT3-autoinhibited value for this compound: Cc1cc2c([nH]1)/C=C1\C(=O)Nc3ccc(cc31)-c1c(noc1C)COCCN(C)C2=O [Ex. 128]
result: 89

query: Dear colleague, please send me the reported % Ctrl, FLT3-autoinhibited for Cc1cc2c([nH]1)/C=C1\C(=O)Nc3cnc(nc31)N(C)CCCOCCN(C)C2=O [Ex.71] when you can.
result: 100

query: Determine its reported % Ctrl, FLT3-autoinhibited: Cc1cc2c([nH]1)/C=C1\C(=O)Nc3ccc(cc31)CN(C)C(=O)COCCNC2=O [Ex.111]
result: 95

query: Respond only with % Ctrl, FLT3-autoinhibited recorded for Cc1cc2c([nH]1)/C=C1\C(=O)Nc3ccc(cc31)-c1ccnn1CCNCCNC2=O [Ex. 43]
result: 77

P. Cc1cc2c([nH]1)/C=C1\C(=O)Nc3cc(Cl)c(cc31)OCCO[C@@H](C(=O)NC1CNC1)CN(C)C2=O [Ex. 133]
Q. Cc1cc2c([nH]1)/C=C1\C(=O)Nc3ccc(cc31)-c1cnn(C)c1CN(C)CCN(C)C2=O [Ex. 126]
R. Cc1cc2c([nH]1)/C=C1\C(=O)Nc3ccc(cc31)OCCOCCN(C)C2=O [Ex.91]
query: Returns the items ordered by % Ctrl, FLT3-autoinhibited, from maximum to minimum. Please, when replying, give the labels in the order that was requested.
result: P, R, Q

All values here come from patent US20230257396A1.
